Every entry's value here was drawn from patent US5219884A.

Experiment: in vitro
Type: cell-based, human
Details: human, katoiii cells, 100.0 μg/ml; read-out: Suppression
Protocol: Cytotoxicity to human tumor cell lines was examined as follows: Cells of human cell lines, K562, MOLT4, U937, HL60, KATOIII, KB, PC-6, PC-14 and CCRF-CEM were separately suspended to the concentration of 2×10^5 cells/ml in the RPMI1640 culture medium supplemented with 20% FCS. Fifty μl of this suspension was added to each well of 96-well microculture plates to which 50 μl of the test solution had been added. […]
Outcome Measure: cytotoxicity at 72 h (%)
Give your result in % as a bare value.

(Q) # input compound: CCCCCCC(=O)CCCCCC/C=C/CC1OC(=O)C(N)(CO)C1O (stereo not shown) [Example 4] ; wanted: its cytotoxicity at 72 h
(A) 97.9

====

Experiment: cytotoxicity to tumor cell line MOLT4
Assay type: cell-based, human
Details: human, molt4 cells, 10.0 μg/ml; read-out: Suppression
# cytotoxicity at 72 h listing for each entry below
Give your result in % as a bare value.

Below, each entry is followed by its recorded cytotoxicity at 72 h result.
CCCCCCC(=O)CCCCCC/C=C/CC1OC(=O)C(CO)(NC(C)=O)C1O (stereo not drawn) [Example 11]	11.7
CCCCCCC(O)CCCCCC/C=C/CC1OC(=O)C(N)(CO)C1O (stereo not drawn) [Example 8]	8.3

(Q) # input compound: CCCCCCC(O)CCCCCC/C=C/CC(O)C(O)C(N)(CO)C(=O)O (stereo not drawn) [Example 6] ; wanted: its cytotoxicity at 72 h
(A) 8.5

====

Experiment: in vitro
Assay type: cell-based, human
Details: human, u937 cells, 100.0 μg/ml; read-out: Suppression
Outcome Measure: cytotoxicity at 72 h (%)
Give your result in % as a bare value.

(Q) # input compound: CCCCCCC(=O)CCCCCC/C=C/CC1OC(=O)C(N)(CO)C1O (stereo not shown) ; wanted: its cytotoxicity at 72 h
(A) 99

====

Experiment: in vitro
Assay type: cell-based, human
Details: human, pc-14 cells, 10.0 μg/ml; read-out: Suppression
Procedure: Cytotoxicity to human tumor cell lines was examined as follows: Cells of human cell lines, K562, MOLT4, U937, HL60, KATOIII, KB, PC-6, PC-14 and CCRF-CEM were separately suspended to the concentration of 2×10^5 cells/ml in the RPMI1640 culture medium supplemented with 20% FCS. Fifty μl of this suspension was added to each well of 96-well microculture plates to which 50 μl of the test solution had been added. […]
# cytotoxicity at 72 h listing for each entry below
Give your result in % as a bare value.

Below, each entry is followed by its recorded cytotoxicity at 72 h result.
CCCCCCC(=O)CCCCCCCCCC(O)C(O)C(N)(CO)C(=O)O (centres unmarked)	25.7
CCCCCCC(O)CCCCCC/C=C/CC1OC(=O)C(N)(CO)C1O (centres unmarked)	31.2
CCCCCCC(O)CCCCCCCCCC1OC(=O)C(N)(CO)C1O (centres unmarked)	33.1

Kindly review the next compound as well.
(Q) # input compound: CCCCCCC(=O)CCCCCC/C=C/CC1OC(=O)C(CO)(NC(C)=O)C1O (centres unmarked) ; wanted: its cytotoxicity at 72 h
(A) 40

====

Experiment: cytotoxicity to tumor cell line MOLT4
Type: cell-based, human
Details: human, molt4 cells, 10.0 μg/ml; read-out: Suppression
Rule: Met for cytotoxicity at 72 h not less than 2%, Not met for anything less.

Check out these entries, answers already filled in.
CCCCCCC(=O)CCCCCC/C=C/CC1OC(=O)C(N)(CO)C1O (centres unmarked) [Example 4]	Met
CCCCCCC(O)CCCCCCCCCC1OC(=O)C(N)(CO)C1O (centres unmarked) [Example 10]	Not met

(Q) # bool: cytotoxicity at 72 h of CCCCCCC(O)CCCCCCCCCC(O)C(O)C(N)(CO)C(=O)O (centres unmarked) [Example 9] >= 2%
(A) Met

(Q) Repeat with CCCCCCC(=O)CCCCCCCCCC1OC(=O)C(N)(CO)C1O (centres unmarked) [Example 7]
(A) Met

(Q) Repeat with CCCCCCC(=O)CCCCCCCCCC(O)C(O)C(N)(CO)C(=O)O (centres unmarked) [Example 5]
(A) Met
